# System: RPMI-8226
# Method: NCI tumour cell line growth inhibition, 48 h
Activity calls are given as the source filed them. Rule as the data show it: active = GI50 up to about 1.1 µM and inactive = higher.
Measured GI50 values are reported for all entries that follow.
Experimental readout: GI50

Compound | Experimental readout | Obs value
c1ccc2c(c1)SC1=Nc3sc4ccccc4[n+]3CN12 | GI50 | 21.8 µM (inactive)
C[C@H](NS(=O)(=O)c1ccc(NC(=O)c2ccccc2)cc1)C(=O)O | GI50 | > 100 µM (inactive)
CCOC(=O)C[C@@]12CCCNC1(C)CCc1ccccc12 (stereo partly specified) | GI50 | > 100 µM (inactive)
COC(=O)c1cc(NC(=O)Cn2c3ccccc3c3ccccc32)cn1C | GI50 | 19.5 µM (inactive)
CC(=O)/C(=N\O)C(=O)Nc1ccc(Cl)cc1Cl | GI50 | > 100 µM (inactive)
O=c1oc2ccccc2c(-c2ccc(O)cc2)c1Oc1ccccc1 | GI50 | 28.1 µM (inactive)

----------
# collection of GI50 values tested on HCT-15

Molecule | GI50
CSc1sc(C)cc1-c1nsc(=O)o1 | > 100 µM
CC1=NN(c2ccc(S(=O)(=O)O)cc2)C2(C1)C(Cl)C(=O)N2c1nc2ccccc2s1 (stereo not given) | > 100 µM
COc1cccc(C2c3cc4c(cc3OC(N3CCOCC3)C2C)OCO4)c1 (stereo not given) | 6.31 µM
COC1=CC(=O)[C@@]2(C)C(C)[C@H](c3ccccc3)[C@H]2C1=O (stereo not given in full) | > 100 µM
CC(C)=CCC/C(C)=C/COC(C)(C)C1=CCC(C)CC1.CC(C)=CCC/C(C)=C/COC1CC(C)CCC1=C(C)C (stereo not given) | > 100 µM

----------
# Tested on: HOP-62
# Method: NCI tumour cell line growth inhibition, 48 h
Activity calls are given as the source filed them. No stated cut-off is given here; in the data, active = GI50 up to about 1.1 µM and inactive = higher.
Outcome codes: active, inactive

Compound | Category
CCOC(=O)N1CCN(c2nc(C)n(-c3ccccc3)c(=S)c2C#N)CC1 | inactive
COc1cc([C@@H]2c3cc4c(cc3[C@@H](NC(=O)c3ccc(OC(C)=O)cc3)C3COC(=O)[C@@H]32)OCO4)cc(OC)c1O (stereo not given in full) | active
CCCC[Si](CCCC)(CCCC)O[C@@H](/C=C/C(=O)OCC)[C@H](Cc1ccccc1)O[Si](CCCC)(CCCC)CCCC | inactive
CSc1cc(Cl)c(C)cc1S(=O)(=O)NC(=O)NNc1ccccn1 | inactive
O=C(Nc1ccc(Cl)c(Cl)c1)C(=O)C(C(=O)c1ccccc1F)C1OC(=O)c2ccccc21 (stereo not given) | inactive

----------
# Test system: SN12C
# Method: NCI tumour cell line growth inhibition, 48 h
Activity calls are given as the source filed them. Cut-off read from the data, not from the text of the source: active = GI50 up to about 1.1 µM and inactive = higher.
Outcome codes: class 1 for active, class 0 for inactive

Compound | Category
Oc1cc(Br)cc2cccnc12 | class 0
O=c1c2cc(I)ccc2nc(-c2cccs2)n1O | class 0
CCCNC1=Nc2ccccc2NC(C)C1 (stereo not drawn) | class 0
O=c1cc(O)c1=O | class 0
COc1ccccc1N1CCN(S(=O)(=O)c2ccc(Cl)cc2)C1=N | class 0
C=C(C)C1Cc2c(cc(O)c3c(=O)c4ccccc4n(C)c23)O1 (stereo not drawn) | class 0
O=C(O)CCCc1ccc2c(c1)CC1(C2)Cc2ccc(CCCC(=O)O)cc2C1 | class 0
O=C1C(Cl)C(c2cc(Br)cc(Br)c2O)N1n1cnc2ccccc2c1=O (stereo not drawn) | class 0
COc1cc2nc(Cl)nc(NS(=O)(=O)c3cc4ccccc4s3)c2cc1OC | class 0
CC(C)SC1SCC2C(=O)N(C)C3(CC3C)C(=O)OCC(NC(=O)c3nc4ccccc4cc3O)C(=O)NC(C)C(=O)N(C)C1C(=O)N(C)C1(CC1C)C(=O)OCC(NC(=O)c1nc3ccccc3cc1O)C(=O)NC(C)C(=O)N2C (stereo not drawn) | class 1
O=S(=O)(O)CCS [MESNA] | class 0
O=C1OC(OC/C(Br)=C(/Br)COC2OC(=O)C(Cl)=C2Cl)C(Cl)=C1Cl (stereo not drawn) | class 0
CCC(=O)C(C)C1=Nc2nnc(CCCCCCCc3nnc4n3C(=O)C(C(C)C(=O)CC)=N4)n2C1=O (stereo not drawn) | class 0
CC[C@H]1OC([C@H](O)C/C=C\C#C[Si](C)(C)C)C/C=C\C[C@H]1O[Si](C)(C)C(C)(C)C (stereo partly drawn) | class 0
CCOC(=O)N1CCN(c2nc(C)n(-c3ccccc3)c(=S)c2C#N)CC1 | class 0
O=c1c2cccnc2[s+]([O-])n1Cc1ccccc1 (stereo not drawn) | class 0
C/C(CN1C(=O)c2ccccc2C1=O)=N\NS(=O)(=O)c1cccc([N+](=O)[O-])c1 | class 0
O=[N+]([O-])c1ccc(/C=C\c2ccc3c(c2)OCO3)c([N+](=O)[O-])c1 | class 0
NCC1Nc2ccccc2[C@@H](O)C1O (stereo partly drawn) | class 0
COc1cc(C2c3c(ccc4ccccc34)C(=O)C3CCC(=O)N32)cc(OC)c1O (stereo not drawn) | class 0
CCN1C(=O)C(C)S/C1=N\NC(=O)CSc1nc2ccccc2c(=O)n1CC (stereo not drawn) | class 0
O=C(Nc1ccccc1)Oc1ccccc1C1CCCCC1 | class 0
N#Cc1nc(C(O)c2ccccc2)oc1N (stereo not drawn) | class 0
